As shown below, each of these compounds has a reported GI50 value.
system: PC-3; assay: NCI tumour cell line growth inhibition, 48 h
Calls of active or inactive are those of the source. Rule as the data show it: active = GI50 up to about 1.1 µM and inactive = higher. Residues, ends and D or L forms follow the SMILES beside them. Groups on a side chain read outwards from the residue. *: point of attachment. Cbz = O=C(OCc1ccccc1)*; Boc = CC(C)(C)OC(=O)*; OBn = c1ccc(CO*)cc1

compound: CC(C)C(NC(=O)C(Cc1ccccc1)NC(=O)OC(C)(C)C)C(=O)NCC(=O)OCc1ccccc1 (stereo not drawn) (Boc-Phe-Val-Gly-OBn; configuration not given here)
GI50: 15.7 µM (inactive)

compound: CC(C)CC(NC(=O)OCc1ccccc1)C(=O)NCCCCC(NC(=O)C(CCCCNC(=O)C(CC(C)C)NC(=O)OCc1ccccc1)NC(=O)C(CCCCNC(=O)C(CC(C)C)NC(=O)OCc1ccccc1)NC(=O)C(CCCCNC(=O)C(CC(C)C)NC(=O)OCc1ccccc1)NC(=O)OC(C)(C)C)C(=O)O (configuration not stated) (Boc-K([Leu-Cbz])K([Leu-Cbz])K([Leu-Cbz])K([Leu-Cbz])-OH; configuration not given here)
GI50: > 25 µM (inactive)

====

As shown below, each of these compounds has a reported GI50 value.
system: MCF7; test: NCI tumour cell line growth inhibition, 48 h
Active and inactive are the calls of the source. No stated cut-off is given here; in the data, active = GI50 up to about 1.1 µM and inactive = higher.

compound: CO[C@@H](c1ccccc1)[C@H](O)[C@@](O)(c1ccccc1)P(=O)(OC)OC
GI50: > 100 µM (inactive)

compound: CC(=O)c1sc(Nc2ccc(Cl)c(Cl)c2)nc1C
GI50: 37.9 µM (inactive)

compound: C[C@]12CC[C@@H]3c4cc(OCC(F)(F)F)c(O)cc4CC[C@H]3[C@@H]1CC[C@@H]2O
GI50: 2.36 µM (inactive)

compound: CC(=O)n1cc(OP(=O)(Oc2ccccc2)Oc2ccccc2)c2ccccc21
GI50: 10.1 µM (inactive)

compound: Cc1noc(C)c1/N=N/c1ccc2nonc2c1N
GI50: > 100 µM (inactive)

compound: CC1=CC[C@@H]2[C@@H](CC[C@@]2(C)O)C(C)(C)[C@H]1CC[C@@H]1[C@@]2(C)CC[C@@H](O)C(C)(C)O[C@@H]2CC[C@]1(C)O
GI50: 31 µM (inactive)

compound: NCS(=O)(=O)O
GI50: > 100 µM (inactive)

compound: O=C(Nc1ccc(N2C(=O)CSC2c2cccs2)cc1)c1ccc(N2C(=O)CSC2c2cccs2)cc1 (stereo not given)
GI50: 62.1 µM (inactive)

compound: c1ccc(/N=C2/SC3=Nc4cccc5cccc(c45)N3/C2=N/c2ccccc2)cc1
GI50: > 100 µM (inactive)

compound: CC(C)=Nn1cnc(C(=N)C#N)c1N
GI50: > 100 µM (inactive)

====

tested on: UACC-257; assay: NCI tumour cell line growth inhibition, 48 h
Active and inactive are the calls of the source. Rule as the data show it: active = GI50 up to about 1.1 µM and inactive = higher.

compound: N=C(N)N/N=C/c1c(-c2ccc(Cl)c(Cl)c2Cl)nc2sccn12
GI50: 1.65 µM (inactive)

compound: CCOC1=C2C(C)(CCC3[C@@]4(C)C=CC(=O)C(C)(C)C4CC(O)[C@@]23C)C(c2ccoc2)C1=O (stereo partly specified)
GI50: 23.7 µM (inactive)

compound: COC(=O)N/N=C(\C)c1c(O)cc(C)oc1=O
GI50: > 100 µM (inactive)

compound: COc1cc2c(c(C)c1O)[C@H]1COc3ccccc3[C@H]1O2
GI50: 12.4 µM (inactive)

compound: Cc1nc2cccc([N+](=O)[O-])c2c(NCCCN(C)C)c1C
GI50: 23 µM (inactive)

compound: Cc1ccc(-c2nnc(CCCCCCCCc3nnc(-c4ccc(C)cc4O)n3N)n2N)c(O)c1
GI50: > 100 µM (inactive)
